# assay_procedure: Quantitative High-Throughput drug screen in 47 multiple myeloma cell lines against the NCATS MIPE library collection: XG1_PLB cell viability assay (AID 1919866); note: nearly all actives have a fitted effect of over 35% in size
# experimental_parameters: CellTiter-Glo ATP, 48 h; series mostly up to 45.8 µM
Records with an inconclusive call do not appear. Active and inactive are the calls of the source. Calls come from the whole dose curve; as a rule, active = well fitted cell-killing curve with a large enough effect; inconclusive = small, poorly fitted or top-dose-only effect, or effect the other way; inactive = no such curve, though single readings can be large or run the other way.
The reply should be one of these categories: 1 = active, -1 = inactive

INSERT INTO measurements (query_smiles, classification) VALUES
  ('COC(c1ccccc1)(c1ccccc1)[C@H](Oc1nc(C)cc(C)n1)C(=O)O', -1),
  ('Oc1c(Cl)cc(Cl)c2cccnc12', 1),
  ('NC1(c2ccc(-c3nc4ccn5c(=O)[nH]nc5c4cc3-c3ccccc3)cc2)CCC1', 1),
  ('COc1cc(NCc2ccc3nc(N)nc(N)c3c2C)cc(OC)c1OC', 1),
  ('Cc1noc(NS(=O)(=O)c2ccc(N)cc2)c1C', -1),
  ('CS(=O)(=O)c1ccc([C@@H](O)[C@@H](CO)NC(=O)C(Cl)Cl)cc1', 1);

How did this test come out for OCc1ccc(-c2nn(Cc3ccccc3)c3ccccc23)o1 ?
-1

How did this test come out for C[C@@H]1C[C@H]2[C@@H]3CCC4=CC(=O)C=C[C@]4(C)[C@@]3(Cl)[C@@H](O)C[C@]2(C)[C@@]1(OC(=O)c1ccco1)C(=O)CCl ?
1

How did this test come out for CN(C)c1ccc(C(=C2C=CC(=[N+](C)C)C=C2)c2ccc(N(C)C)cc2)cc1 ?
1

How did this test come out for OC(Cn1cncn1)(Cn1cncn1)c1ccc(F)cc1F ?
-1
